Tested on: SR leukemia
Method: NCI-60 one-dose screen, 48 h (100 = growth as untreated, 0 = no growth, -100 = all killed)
Cond: 10 µM unless noted
About 83,000 compounds went through this panel and 20% of them were active in at least one assay; those are over-represented in the sample as a whole. Active and inactive are the calls of the source. The calls were made as follows: active = growth percent below 10; inactive = the rest.
I'd be grateful if you could share measured growth for these entries.

// growth value for CC1=CC2c3oc(-c4ccccc4)c(C(=O)c4ccccc4)c3CNC2C=C1 (stereo unspecified) : 89.6% (inactive)

// growth value for Cc1ccc(-c2cc3c(SCC(=O)Nc4cc(C(F)(F)F)ccc4Cl)nccn3n2)cc1 : -10.2% (active)

// growth value for Cc1cc(O)cc(-c2c(-c3ccnc(-c4cccnc4)c3)cnn2C)c1 : 42.2% (inactive)

// growth value for COc1cc(C(=O)NNC(=O)c2ccc(NC(=O)CCl)cc2)cc(OC)c1OC : 45.8% (inactive)

// growth value for CCN1CCN(c2nc(C)cc(N(CCCNc3ccnc4cc(Cl)ccc34)Cc3ccc4c(c3)OCO4)n2)CC1 : -45.2% (active)

// growth value for CCCCCCCC(=O)SCC/C=C/[C@@H]1CC(=O)NCc2cc(ccn2)C2=N[C@@](C)(CS2)C(=O)N[C@@H](C(C)C)C(=O)O1 : 14.3% (inactive)

// growth value for NC1(c2ccc(-c3nc4ccn5c(=O)[nH]nc5c4cc3-c3ccccc3)cc2)CCC1 : -23.4% (active)

// growth value for COc1ccc2c(OCc3nnc4ccc(-c5ccccc5)nn34)ccnc2c1 : 80.9% [2.5 µM] (inactive)

// growth value for C[C@@H](NC(=O)c1ncnc(N)c1Cl)c1ncc(C(=O)Nc2cc(C(F)(F)F)c(Cl)cn2)s1 : 57.5% (inactive)

// growth value for O=C(Nc1ccc(Nc2ncnc3sc4c(c23)CCOC4)cc1)Nc1ccc(Cl)c(C(F)(F)F)c1 : 83% (inactive)

// growth value for COc1ccc2c(CCc3ccc(Cl)cc3)c3[n+](cc2c1OC)CCc1cc2c(cc1-3)OCO2 : 33.8% (inactive)

// growth value for COc1ccc2c(c1)cn1c3ccc(O)cc3nc(N)c21 : 3.65% (active)

// growth value for CNC(=O)c1cc(Oc2cccc3nc(Nc4ccc(Oc5ccccc5)cc4)ccc23)ccn1 : 30.2% (inactive)

// growth value for O=C(Cn1c(=O)ccn(CCCCCCCCOc2ccc(Br)cc2)c1=O)Nc1ccc(Oc2ccc(Cl)cc2)cc1 : 28.7% (inactive)

// growth value for CCNC(=O)C#Cc1ccc2c(C(=Nc3ccc(CN(C)C)cc3)c3ccccc3)c(O)[nH]c2c1 : -13.6% (active)

// growth value for C[C@@H](N)c1ccc(C(=O)Nc2ccnc3[nH]ccc23)cc1 : 9.45% (active)

----------
Tested on: HS 578T breast
Method: NCI-60 one-dose screen, 48 h
Cond: 10 µM
This is part of a sample that, as a whole, favours compounds with a hit. Of some 83,000 tested, about 20% had one in any assay. The source made the active and inactive calls. Rule for the calls: active = growth percent below 10; inactive = the rest.
Please reply with one of these outcomes: Yes = active, No = inactive

Qu. Recorded call for CNC(=O)c1cc(Oc2ccc3nc(NC(=O)Nc4ccc(Cl)c(C(F)(F)F)c4)sc3c2)ccn1 ?
Ans. Yes

Qu. Recorded call for O=C1CSC(c2c(F)cccc2Cl)N1NC(=O)C(O)(c1ccccc1)c1ccccc1 (centres undefined) ?
Ans. No

Qu. Recorded call for CCN(CC)C(=O)C[N+](C)(C)CCOC(c1ccccc1)c1ccccc1 ?
Ans. No

Qu. Recorded call for CCOC(=O)C1=C(C)NC(=O)NC1c1cc(=O)oc2ccc(C)cc12 (centres undefined) ?
Ans. No
